# assaySystem: human GPR119 (hGPR119) (Homo sapiens, UniProt Q8TDV5)
# Sequence (Q8TDV5 whole entry): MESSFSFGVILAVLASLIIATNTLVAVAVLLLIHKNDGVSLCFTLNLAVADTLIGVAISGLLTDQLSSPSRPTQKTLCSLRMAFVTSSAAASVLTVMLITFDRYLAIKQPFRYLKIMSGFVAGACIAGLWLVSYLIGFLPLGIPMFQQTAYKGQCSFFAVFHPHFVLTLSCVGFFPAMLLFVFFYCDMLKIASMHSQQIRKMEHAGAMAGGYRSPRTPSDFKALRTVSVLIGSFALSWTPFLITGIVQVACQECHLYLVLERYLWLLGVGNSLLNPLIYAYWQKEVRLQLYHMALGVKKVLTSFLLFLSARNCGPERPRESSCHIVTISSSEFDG
# assayText: cAMP accumulation assay in CHO-K1 cells stably expressing hGPR119
# conditionContext: cAMP HTRF, 60 minutes
pEC50: −log10 of the molar value.
Reported values of pEC50 for individual entries

>  <compound>
CCCc1cnc(N2CCC(CCCOc3ccc(CC(=O)N4CC(CNCC(O)(CO)CO)C4)c(F)c3)CC2)nc1

>  <reading>
≥ 7.00

$$$$
>  <compound>
O=C(CC1CN(C(=O)Cc2ccc(OCCCC3CCN(c4ncc(Cl)cn4)CC3)cc2F)C1)NC[C@H](O)[C@@H](O)[C@H](O)[C@H](O)CO (racemic)

>  <reading>
6.00 to 7.00

$$$$
>  <compound>
O=C(Cc1ccc(OCCCC2CCN(c3ncc(Cl)cn3)CC2)cc1F)N1CC(CNC[C@H](O)[C@@H](O)[C@H](O)CO)C1

>  <reading>
≥ 7.00

$$$$
>  <compound>
CCCc1cnc(N2CCC(CCCOc3ccc(CC(=O)N4CC(CNCC(CO)CO)C4)c(F)c3)CC2)nc1

>  <reading>
≥ 7.00

$$$$
>  <compound>
O=C(Cc1ccc(OCCCC2CCN(c3ncc(Cl)cn3)CC2)cc1F)N1CC(CN2C[C@@H](O)[C@@H](O)C2)C1

>  <reading>
≥ 7.00

$$$$

(Q) pEC50 of O=C(Cc1ccc(OCCCC2CCN(c3ncc(Cl)cn3)CC2)cc1F)N1CC(CN2C[C@@H](O)[C@H](O)C2)C1 (stereo in doubt) on human GPR119 (hGPR119) (Homo sapiens, UniProt Q8TDV5)?
(A) ≥ 7.00

(Q) Request body: readout pEC50, system human GPR119 (hGPR119) (Homo sapiens, UniProt Q8TDV5), query `CCCc1cnc(N2CCC(CCCOc3ccc(CC(=O)N4CC(CNCCNC(=O)NC(CO)(CO)CO)C4)c(F)c3)CC2)nc1` . Return the value.
(A) 6.00 to 7.00

(Q) Value wanted: pEC50 (human GPR119 (hGPR119) (Homo sapiens, UniProt Q8TDV5)) of entry `O=C(NCCNCCC1CN(C(=O)Cc2ccc(OCCCC3CCN(c4ncc(Cl)cn4)CC3)cc2F)C1)NC(CO)(CO)CO`
(A) 6.00 to 7.00

(Q) // lookup pEC50 | system=human GPR119 (hGPR119) (Homo sapiens, UniProt Q8TDV5) | key= `O=C(NCCCS(=O)(=O)O)C1CN(C(=O)Cc2ccc(OCCCC3CCN(c4ncc(Cl)cn4)CC3)cc2F)C1`
(A) ≥ 7.00

(Q) Request: pEC50, test system human GPR119 (hGPR119) (Homo sapiens, UniProt Q8TDV5), entry `CCOc1cnc(N2CCC(CCCOc3ccc(CC(=O)N4CC(CC(=O)NCC(O)(CO)CO)C4)c(F)c3)CC2)nc1`
(A) ≥ 7.00

(Q) Any idea what pEC50 came out for `O=C(Cc1ccc(OCCCC2CCN(c3ncc(CO)cn3)CC2)cc1F)N1CC(CNC[C@H](O)[C@@H](O)[C@H](O)[C@H](O)CO)C1` on human GPR119 (hGPR119) (Homo sapiens, UniProt Q8TDV5)?
(A) 5.00 to 6.00

(Q) What is its pEC50 for human GPR119 (hGPR119) (Homo sapiens, UniProt Q8TDV5)? Entry: `CCCc1cnc(N2CCC(CCCOc3cc(F)c(CC(=O)N4CC(CNCC(O)(CO)CO)C4)c(F)c3)CC2)nc1`
(A) ≥ 7.00

(Q) Checklist item: pEC50 tested on human GPR119 (hGPR119) (Homo sapiens, UniProt Q8TDV5), entry `O=C(CC1CN(C(=O)Cc2ccc(OCCCC3CCN(c4ncc(Cl)cn4)CC3)cc2F)C1)NCCS(=O)(=O)O` , value?
(A) 6.00 to 7.00
